Tested on: FXR:RXRa (NR concentration 270 nM, RXRa partner concentration 90 nM)
assay: PBM binding z-score (relative to random genomic background probes); higher = stronger binding; sequences stand for … in GC…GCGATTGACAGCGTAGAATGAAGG
Quick rule for you: PBM binding z-score at 1 or higher means true, lower means false.

Sample answers from the record:
**Query** Entry GCGACGGGGGCAAAGCAGGTTACCATAAGGTTGG : is its PBM binding z-score no less than 1?
**Result** true

**Query** Please do the same for CGAACGAGGGCATGAGTTGAGAGCAAATGCCGAT as well.
**Result** false

**Query** Now the same for TCACATAGGTAAATGCTAGGTGAAAGTCCGATCT
**Result** false

**Query** And what about the sequence ATCTCTAGGTAACACGTTCAGTGAAAGAGAGGAC ?
**Result** false

**Query** Would you mind doing GGTACGAGGGCATTCGAGTTGATAGCATGGCGAT as well?
**Result** true

Continuing:
**Query** Check if PBM binding z-score >= 1 (inclusive). Item: CCGACTGGGGCAAGGTTACCTTAACGCACAGCCA
**Result** false

**Query** What do you get for CCTAGTTGGTCAAGGTCACACTCGCTATAGGTAC ?
**Result** true
